Measured values drawn from PubChem BioAssay for this set.

Assay: growth inhibition of CRL1545 osteosarcoma cells, cell-based, cisplatin and BGB IC20 combos (AID 1671464);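 note: cells exposed to compound for 96 hours before readout; 0% = vehicle DMSO and 100% = high DMSO killing control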
Conditions: measured here: with cisplatin IC20 combination, at 0.5 µM, stronger effect = higher value
Exercise: for every item that follows, state its recorded inhibition.
Give bare numbers, in %.

- compound: "O=c1[nH]c(=O)n(C2OC(CO)C(O)C2O)cc1F (stereo not drawn)"
  inhibition (%): 85.1
- compound: "Cn1c(CCCC(=O)O)nc2cc(N(CCCl)CCCl)ccc21"
  inhibition (%): -41.4
- compound: "NC(Cc1ccc(N(CCCl)CCCl)cc1)C(=O)O (stereo not drawn)"
  inhibition (%): -27.8
- compound: "Cn1c(COP(=O)(NCCBr)NCCBr)cnc1[N+](=O)[O-]"
  inhibition (%): -51.7

Give inhibition for all compounds that follow.
1. O=P(O)(NCCCl)NCCCl
2. CC1(C)C(C(=O)Nc2ccc(S(=O)(=O)c3ccc(NC(=O)C4C(C)(C)C4(C)C)cc3)cc2)C1(C)C
3. Cc1c2ccncc2c(C)c2c1[nH]c1ccccc12
4. O=C(O)CCCc1ccc(N(CCCl)CCCl)cc1

[-44.9, -22.6, -46.6, -18.8]
